Tested on: ryegrass, Italian (Italian ryegrass, Lolium multiflorum)
Assay: Test A greenhouse herbicide test, pre- and postemergence
Assay type: in vivo
Conditions: Preemergence, 125 g ai/ha; 0 to 100 scale where 0 is no effect and 100 is complete control
Reported endpoint: Ryegrass, Italian plant response rating

• CCC(=O)Oc1c(C)nn(C)c(=O)c1-c1c(C)sc2ccc(C)cc12 = 100
• COc1nn(C)c(=O)c(-c2c(C)ccc3ccccc23)c1OC(=O)OC(C)C = 70
• CCC(=O)Oc1c(C)nn(C)c(=O)c1-c1c(C)sc2c(C)cc(C)cc12 = 100
• CCc1nn(C)c(=O)c(-c2c(C)oc3ccccc23)c1O = 0
• Cc1ccc(-c2c(O)cnn(C)c2=O)c2ccccc12 = 0
• Cc1cc(C)c2c(-c3c(OC(=O)C(C)(C)C)c(C)nn(C)c3=O)c(C)sc2c1 = 0
• COc1nn(C)c(=O)c(-c2c(C)ccc3ccccc23)c1O = 30
• CC(=O)Oc1c(C)nn(C)c(=O)c1-c1ccc(F)c2ccccc12 = 100
• CCOC(=O)Oc1c(C)nn(C)c(=O)c1-c1c(CC)ccc2ccccc12 = 90

---

Test system: ragweed (common ragweed, Ambrosia elatior)
Experiment: Test C greenhouse herbicide test, pre- and postemergence
Format: in vivo
Conditions: Preemergence, 125 g ai/ha; scale 0 to 100, 0 is no effect, 100 is complete control
Reported endpoint: Plant response rating, Ragweed

• C#CCOC(=O)Oc1c(C)nn(C)c(=O)c1-c1c(C)sc2ccc(C)cc12 = 95
• CCC(=O)Oc1c(C)nn(C)c(=O)c1-c1c(C)sc2c(C)cc(C)cc12 = 95
• CC(=O)Oc1c(C)nn(C)c(=O)c1-c1c(C)sc2ccc(C)cc12 = 98
• Cc1cc(C)c2sc(C)c(-c3c(OC(=O)OC(C)C)c(C)nn(C)c3=O)c2c1 = 100
• COc1nn(C)c(=O)c(-c2c(C)ccc3ccccc23)c1O = 95
• CCC(=O)Oc1c(C)nn(C)c(=O)c1-c1c(C)sc2ccc(C)cc12 = 95
• CCOC(=O)Oc1c(C)nn(C)c(=O)c1-c1c(C)sc2ccc(C)cc12 = 90
• Cc1nn(C)c(=O)c(-c2c(C)sc3ccc(Cl)cc23)c1O = 95
• CCC(=O)Oc1c(C)nn(C)c(=O)c1-c1c(C)sc2ccc(Cl)cc12 = 95
• CCCC(=O)Oc1c(C)nn(C)c(=O)c1-c1c(C)sc2c(C)cc(C)cc12 = 95
• COC(=O)Oc1c(C)nn(C)c(=O)c1-c1c(C)sc2c(C)cc(C)cc12 = 95

---

Test system: lambsquarters (Chenopodium album)
Assay: Test C greenhouse herbicide test, pre- and postemergence
Format: in vivo
Details: Preemergence, 125 g ai/ha; scale 0 to 100, 0 is no effect, 100 is complete control
Reported endpoint: Plant response rating, Lambsquarters

• CCOC(=O)Oc1c(C)nn(C)c(=O)c1-c1c(C)ccc2ccccc12 = 80
• Cc1cc(C)c2ccccc2c1-c1c(OS(C)(=O)=O)c(C)nn(C)c1=O = 85
• CCCC(=O)Oc1c(C)nn(C)c(=O)c1-c1c(C)sc2c(C)cc(C)cc12 = 100
• Cc1ccc2sc(C)c(-c3c(O)c(C)nn(C)c3=O)c2c1 = 100
• CC(=O)Oc1c(C)nn(C)c(=O)c1-c1c(C)cc(C)c2ccccc12 = 100

---

System: radish, wild (wild radish, Raphanus raphanistrum)
Experiment: Test D controlled growth environment herbicide test, pre- and postemergence
Format: in vivo
Settings: postemergence, 62 g ai/ha; scale 0 to 100, 0 no effect, 100 complete control
Rule: fulfilled for Plant response rating, Radish, Wild not less than 80, not fulfilled for anything less.

* COc1nn(C)c(=O)c(-c2c(C)ccc3ccccc23)c1O | fulfilled
* CCOC(=O)Oc1c(C)nn(C)c(=O)c1-c1c(C)sc2c(C)cc(C)cc12 | fulfilled
* CCC(=O)Oc1c(C)nn(C)c(=O)c1-c1c(C)sc2ccc(C)cc12 | not fulfilled
* CC(=O)Oc1c(C)nn(C)c(=O)c1-c1c(C)cc(C)c2ccccc12 | fulfilled
* Cc1nn(C)c(=O)c(-c2c(C)sc3ccc(Cl)cc23)c1O | not fulfilled

---

Reported Plant response rating, Windgrass by item:
Test system: windgrass (Apera spica-venti)
Assay: Test D controlled growth environment herbicide test, pre- and postemergence
Format: in vivo
Conditions: Preemergence, 62 g ai/ha; scale 0 to 100 (0 no effect, 100 complete control)
Reported endpoint: Plant response rating, Windgrass

* CCC(=O)Oc1c(C)nn(C)c(=O)c1-c1c(C)sc2ccc(C)cc12 | 85
* Cc1ccc2ccc(C)c(-c3c(O)c(C)nn(C)c3=O)c2c1 | 90
* Cc1ccc2sc(C)c(-c3c(O)c(C)nn(C)c3=O)c2c1 | 60
* CCOC(=O)Oc1c(C)nn(C)c(=O)c1-c1c(C)ccc2ccccc12 | 65

---

Test system: lambsquarters (Chenopodium album)
Test: Test C greenhouse herbicide test, pre- and postemergence
Format: in vivo
Conditions: Postemergence, 62 g ai/ha; 0 to 100 scale (0 no effect, 100 complete control)
Source text: […]
Reported endpoint: Lambsquarters plant response rating

* CCC(=O)Oc1c(C)nn(C)c(=O)c1-c1ccc(Br)c2ccccc12 [Compound 133] | 98
* CC(=O)Oc1c(C)nn(C)c(=O)c1-c1c(C)cc(C)c2ccccc12 [Compound 153] | 90
* Cc1cc(C)c2ccccc2c1-c1c(OS(C)(=O)=O)c(C)nn(C)c1=O [Compound 154] | 85
* COC(=O)Oc1c(Br)nn(C)c(=O)c1-c1c(C)ccc2ccccc12 [Compound 137] | 90

---

Tested on: beggarticks (hairy beggarticks, Bidens pilosa)
Assay: Test E greenhouse herbicide test, pre- and postemergence
Assay type: in vivo
Details: Postemergence, 31 g ai/ha; visual, scale 0 no effect to 100 complete control
Reported Plant response rating, Beggarticks by item:
Reported endpoint: Plant response rating, Beggarticks

• Cc1ccc2sc(C)c(-c3c(O)c(C)nn(C)c3=O)c2c1 = 85
• Cc1cc(C)c2sc(C)c(-c3c(OC(=O)OCCCl)c(C)nn(C)c3=O)c2c1 = 90
• CCOC(=O)Oc1c(C)nn(C)c(=O)c1-c1c(C)sc2ccc(C)cc12 = 90
• CSCC(=O)Oc1c(C)nn(C)c(=O)c1-c1cccc2ccccc12 = 80

---

Reported Plant response rating, Foxtail, Giant by item:
System: foxtail, giant (giant foxtail, Setaria faberii)
Assay: Test A greenhouse herbicide test, pre- and postemergence
Type: in vivo
Details: Postemergence, 125 g ai/ha; 0 to 100 scale where 0 is no effect and 100 is complete control
Reported endpoint: Plant response rating, Foxtail, Giant

* COc1nn(C)c(=O)c(-c2c(C)ccc3ccccc23)c1OC(C)=O | 90
* CC(=O)Oc1c(C#N)nn(C)c(=O)c1-c1c(C)ccc2ccccc12 | 90
* CCc1ccc2ccc(C)cc2c1-c1c(O)c(C)nn(C)c1=O | 90

---

Tested on: kochia (Kochia scoparia)
Test: Test D controlled growth environment herbicide test, pre- and postemergence
Type: in vivo
Conditions: Preemergence, 31 g ai/ha
Reported Plant response rating (scale of 0 to 100), Kochia by item:
Reported endpoint: Plant response rating (scale of 0 to 100), Kochia

- CCOC(=O)Oc1c(C)nn(C)c(=O)c1-c1c(C)ccc2ccccc12: 30
- CC(=O)Oc1c(Br)nn(C)c(=O)c1-c1c(C)ccc2ccccc12: 5
- COC(=O)Oc1c(C)nn(C)c(=O)c1-c1c(C)sc2c(C)cc(C)cc12: 0
- CCC(=O)Oc1c(C)nn(C)c(=O)c1-c1c(C)sc2ccc(Cl)cc12: 20
- Cc1cc(C)c2sc(C)c(-c3c(OC(=O)OC(C)C)c(C)nn(C)c3=O)c2c1: 0
- COc1nn(C)c(=O)c(-c2c(C)ccc3ccccc23)c1O: 25
- Cc1ccc2ccc(C)c(-c3c(O)c(C)nn(C)c3=O)c2c1: 15
- Cc1ccc2ccccc2c1-c1c(O)c(C)nn(C)c1=O: 20
- Cc1ccc2sc(C)c(-c3c(O)c(C)nn(C)c3=O)c2c1: 0
- Cc1cc(C)c2sc(C)c(-c3c(OC(=O)OCCCl)c(C)nn(C)c3=O)c2c1: 5

---

Test system: waterhemp (common waterhemp, Amaranthus rudis)
Test: Test C greenhouse herbicide test, pre- and postemergence
Assay type: in vivo
Conditions: Preemergence, 125 g ai/ha; scale 0 to 100, 0 is no effect, 100 is complete control
Reported endpoint: Plant response rating, Waterhemp

* Cc1cc(C)c2ccccc2c1-c1c(OS(C)(=O)=O)c(C)nn(C)c1=O | 95
* COC(=O)Oc1c(C)nn(C)c(=O)c1-c1c(C)sc2c(C)cc(C)cc12 | 90
* Cc1ccc2sc(C)c(-c3c(O)c(C)nn(C)c3=O)c2c1 | 100
* CCOC(=O)Oc1c(C)nn(C)c(=O)c1-c1c(C)sc2ccc(C)cc12 | 100
* C#CCOC(=O)Oc1c(C)nn(C)c(=O)c1-c1c(C)sc2ccc(C)cc12 | 100
